Taken from PubChem BioAssay (NCATS).

Test: qHTS Assay for Identification of Small Molecule Agonists for Hypoxia Response Element Signaling Pathway (AID 914); note: potency is the fitted concentration of half-maximal effect
Settings: ME-180 (cervical carcinoma) HRE-bla reporter, beta-lactamase ratio, CoCl2, 17 h
From the text: NIH Molecular Libraries Screening Centers Network [MLSCN] NIH Chemical Genomics Center [NCGC] Hypoxia-inducible factor-1 (HIF-1) is the major hypoxia-regulated transcription factor that controls cellular responses to low oxygen concentration. HIF-1 is composed of two subunits: hypoxia responsive HIF-1 alpha and constitutively expressed HIF-1 beta, which is also known as aryl hydrocarbon receptor nuclear translocator. […]
Records with an inconclusive call do not appear. Activity calls are given as the source filed them. Calls come from the whole dose curve; as a rule, active = well fitted activation curve with a large enough effect in the signal ratio, with a control signal flat (not every such curve was filed as active); inconclusive = small, poorly fitted or top-dose-only effect, or effect the other way, or a change in a side signal; inactive = flat fitted curve, though single readings scatter; the % refers to the signal ratio.
observationType: Potency

structureSmiles	result
CCNc1ncc2nc(-c3ccc(Cl)cc3)c(=O)n(Cc3cccs3)c2n1	0.126 µM (active)
COc1ccc(-n2c(=O)c(-c3cn(C)c4ccccc34)nc3cnc(N4CCNCC4)nc32)cc1	3.16 µM (active)
COc1ncc2nc(-c3cccs3)c(=O)n(C)c2n1	2.51 µM (active)
O=c1c(-c2cc(F)cc(F)c2)nc2cnc(N3CCOCC3)nc2n1-c1ccccc1	2.51 µM (active)
CN1CCN(c2ncc3nc(-c4ccc(Cl)cc4)c(=O)n(C)c3n2)CC1	3.16 µM (active)

Lab note: next compound to report on.
Exercise: Entry `COc1ccc(-c2nc3cnc(N4CCN(C)CC4)nc3n(CCC#N)c2=O)cc1` : reported Potency = ?
Solution: 3.16 µM (active)
